target: WDR68 (IPI00006754); assay: binding to VI16742 beads (HeLa lysate, SILAC MS); conditions: immobilized VI16742
pKi: −log10 of the molar value.
readout.label: pKi

> print(dat)
                              smiles.record   val
1  CC(C)n1c(=O)ccc2cnc(Nc3ccc(OCCN)cc3)nc21  3.60

* * *

target: RPL27A (Homo sapiens, UniProt P46776); test: binding to AX14596 beads (HeLa lysate, SILAC MS)
pKi: −log10 of the molar value.
readout.label: pKi

> print(dat)
                             smiles.record  readout.label   val
1  COc1cc2ncnc(Nc3ccc(F)c(Cl)c3)c2cc1OCCCN            pKi  2.53

* * *

biological target: JNK2 (Homo sapiens); experiment: binding to immobilized V16742 (IVA1/IVA2, HeLa lysate, MS); details: EXPERIMENT 1, read-out: Kd
Sequence (P45984 whole entry): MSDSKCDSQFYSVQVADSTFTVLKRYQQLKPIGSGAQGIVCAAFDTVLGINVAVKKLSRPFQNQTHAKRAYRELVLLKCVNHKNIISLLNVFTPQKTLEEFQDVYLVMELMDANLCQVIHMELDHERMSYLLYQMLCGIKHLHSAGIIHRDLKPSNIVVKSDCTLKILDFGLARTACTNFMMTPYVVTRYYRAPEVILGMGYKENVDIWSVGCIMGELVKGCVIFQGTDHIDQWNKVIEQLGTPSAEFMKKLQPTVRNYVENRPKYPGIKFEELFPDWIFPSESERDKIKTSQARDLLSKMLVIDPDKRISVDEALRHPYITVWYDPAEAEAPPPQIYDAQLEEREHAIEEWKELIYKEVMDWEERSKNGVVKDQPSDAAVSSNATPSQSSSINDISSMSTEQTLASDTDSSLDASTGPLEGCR
readout.label: Kd

> print(dat)
                              smiles.record               system      val
1  CC(C)n1c(=O)ccc2cnc(Nc3ccc(OCCN)cc3)nc21  JNK2 (Homo sapiens)  0.91 µM

* * *

biological target: BLMH (Homo sapiens); construct: endogenous in cells; assay: gefitinib competition against AX14596 beads (HeLa lysate, SILAC MS)
Sequence (Q13867 whole entry): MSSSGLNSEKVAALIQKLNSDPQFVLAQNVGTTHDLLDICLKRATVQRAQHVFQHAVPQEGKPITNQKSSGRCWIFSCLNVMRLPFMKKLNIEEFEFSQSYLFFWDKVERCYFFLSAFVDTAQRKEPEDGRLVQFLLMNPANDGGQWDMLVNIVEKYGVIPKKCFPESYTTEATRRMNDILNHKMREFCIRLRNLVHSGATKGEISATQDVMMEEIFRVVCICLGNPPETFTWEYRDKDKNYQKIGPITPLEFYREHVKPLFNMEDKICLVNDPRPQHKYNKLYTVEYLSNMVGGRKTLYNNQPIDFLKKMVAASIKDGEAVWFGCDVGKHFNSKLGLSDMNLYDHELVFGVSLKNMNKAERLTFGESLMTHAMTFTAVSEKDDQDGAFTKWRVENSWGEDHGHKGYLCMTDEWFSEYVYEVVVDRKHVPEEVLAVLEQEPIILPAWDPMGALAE
pIC50: −log10 of the molar value.
readout.label: pIC50

> print(dat)
                              smiles.record  readout.label   val
1  COc1cc2ncnc(Nc3ccc(F)c(Cl)c3)c2cc1OCCCN1CCOCC1          pIC50  6.65

* * *

target: MST3 (STK24, IPI00872754) (Homo sapiens, UniProt Q9Y6E0); construct: endogenous in cells; assay: binding to VI16742 beads (HeLa lysate, SILAC MS); conditions: immobilized VI16742
Sequence (Q9Y6E0 whole entry): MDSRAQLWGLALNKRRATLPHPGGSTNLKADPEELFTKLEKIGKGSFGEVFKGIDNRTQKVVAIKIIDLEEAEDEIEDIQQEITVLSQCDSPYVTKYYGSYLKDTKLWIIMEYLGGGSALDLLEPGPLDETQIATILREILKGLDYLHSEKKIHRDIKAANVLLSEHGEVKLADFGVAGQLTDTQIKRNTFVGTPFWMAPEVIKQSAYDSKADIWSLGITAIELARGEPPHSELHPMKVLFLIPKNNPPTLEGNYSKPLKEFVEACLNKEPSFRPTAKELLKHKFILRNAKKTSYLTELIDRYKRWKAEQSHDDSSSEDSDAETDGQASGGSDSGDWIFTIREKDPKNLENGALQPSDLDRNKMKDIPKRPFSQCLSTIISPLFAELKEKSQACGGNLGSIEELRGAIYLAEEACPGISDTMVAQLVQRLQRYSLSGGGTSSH
readout.label: Ki (µM)

> print(dat)
                              smiles.record   val
1  CC(C)n1c(=O)ccc2cnc(Nc3ccc(OCCN)cc3)nc21  89.8

* * *

molecular target: CDK7 (Homo sapiens); construct: endogenous in cells; host or cells: HeLa S3; assay: binding to immobilized V16742 (IVA1/IVA2, HeLa lysate, MS); details: average of two experiments, read-out: Kd Avg
Sequence (P50613 whole entry): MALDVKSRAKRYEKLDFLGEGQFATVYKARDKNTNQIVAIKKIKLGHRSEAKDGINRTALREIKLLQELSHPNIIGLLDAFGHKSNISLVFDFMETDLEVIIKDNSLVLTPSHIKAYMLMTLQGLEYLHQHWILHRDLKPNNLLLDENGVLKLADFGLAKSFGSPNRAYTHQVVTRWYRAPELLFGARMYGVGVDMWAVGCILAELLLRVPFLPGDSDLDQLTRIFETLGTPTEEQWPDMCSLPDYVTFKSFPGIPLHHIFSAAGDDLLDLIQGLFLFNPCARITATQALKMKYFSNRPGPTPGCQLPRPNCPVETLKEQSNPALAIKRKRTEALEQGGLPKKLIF
readout.label: Kd (µM)

> print(dat)
                              smiles.record  unit.descriptor   val
1  CC(C)n1c(=O)ccc2cnc(Nc3ccc(OCCN)cc3)nc21               µM  50.7

* * *

molecular target: YES (Homo sapiens, UniProt P07947); test: binding to immobilized V16742 (IVA1/IVA2, HeLa lysate, MS); details: read-out: Kd Avg
Sequence (P07947 whole entry): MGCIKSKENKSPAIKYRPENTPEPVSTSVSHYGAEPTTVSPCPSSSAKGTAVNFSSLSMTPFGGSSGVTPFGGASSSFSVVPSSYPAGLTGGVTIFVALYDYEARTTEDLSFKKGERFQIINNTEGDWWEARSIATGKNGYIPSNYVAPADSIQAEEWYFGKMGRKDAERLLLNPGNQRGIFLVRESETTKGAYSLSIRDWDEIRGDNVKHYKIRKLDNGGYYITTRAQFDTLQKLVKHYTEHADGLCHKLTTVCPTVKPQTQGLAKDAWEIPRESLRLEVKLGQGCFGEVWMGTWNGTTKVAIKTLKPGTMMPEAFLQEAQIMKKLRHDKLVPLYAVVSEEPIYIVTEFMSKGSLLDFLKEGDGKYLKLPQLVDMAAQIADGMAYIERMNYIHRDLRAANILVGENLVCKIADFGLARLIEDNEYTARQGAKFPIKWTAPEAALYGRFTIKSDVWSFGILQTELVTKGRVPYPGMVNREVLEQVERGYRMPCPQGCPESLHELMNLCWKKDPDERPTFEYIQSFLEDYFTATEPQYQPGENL
readout.label: Kd (µM)

> print(dat)
                              smiles.record                              system  unit.descriptor   val
1  CC(C)n1c(=O)ccc2cnc(Nc3ccc(OCCN)cc3)nc21  YES (Homo sapiens, UniProt P07947)               µM  36.8

* * *

target: UniProt:Q9BUB5; test: binding to AX14596 beads (HeLa lysate, SILAC MS)
Sequence (Q9BUB5 whole entry): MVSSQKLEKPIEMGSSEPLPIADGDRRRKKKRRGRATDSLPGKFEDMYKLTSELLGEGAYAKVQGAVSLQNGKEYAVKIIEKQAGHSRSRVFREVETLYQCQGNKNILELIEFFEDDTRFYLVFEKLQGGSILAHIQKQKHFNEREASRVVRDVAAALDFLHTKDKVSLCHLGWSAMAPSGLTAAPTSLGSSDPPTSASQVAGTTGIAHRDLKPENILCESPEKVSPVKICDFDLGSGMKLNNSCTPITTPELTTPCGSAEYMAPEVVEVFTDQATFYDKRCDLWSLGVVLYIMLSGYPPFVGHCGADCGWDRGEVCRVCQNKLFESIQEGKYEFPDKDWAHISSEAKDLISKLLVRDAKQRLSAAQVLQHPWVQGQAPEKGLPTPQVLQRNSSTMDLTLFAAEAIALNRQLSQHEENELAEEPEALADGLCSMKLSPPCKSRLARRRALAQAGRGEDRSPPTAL
pKi: −log10 of the molar value.
readout.label: pKi

> print(dat)
                                   compound   val
1  COc1cc2ncnc(Nc3ccc(F)c(Cl)c3)c2cc1OCCCN [AX14596]  3.04

* * *

biological target: CCNH (IPI00021305); assay: binding to VI16742 beads (HeLa lysate, SILAC MS); conditions: immobilized VI16742
pKi: −log10 of the molar value.
readout.label: pKi

> print(dat)
                              smiles.record  readout.label   val
1  CC(C)n1c(=O)ccc2cnc(Nc3ccc(OCCN)cc3)nc21            pKi  4.01

* * *

molecular target: TLK2 (Homo sapiens, UniProt Q86UE8); construct: endogenous in cells; host or cells: HeLa S3; test: binding to immobilized V16742 (IVA1/IVA2, HeLa lysate, MS); settings: Experiment 1, read-out: Kd
Sequence (Q86UE8 whole entry): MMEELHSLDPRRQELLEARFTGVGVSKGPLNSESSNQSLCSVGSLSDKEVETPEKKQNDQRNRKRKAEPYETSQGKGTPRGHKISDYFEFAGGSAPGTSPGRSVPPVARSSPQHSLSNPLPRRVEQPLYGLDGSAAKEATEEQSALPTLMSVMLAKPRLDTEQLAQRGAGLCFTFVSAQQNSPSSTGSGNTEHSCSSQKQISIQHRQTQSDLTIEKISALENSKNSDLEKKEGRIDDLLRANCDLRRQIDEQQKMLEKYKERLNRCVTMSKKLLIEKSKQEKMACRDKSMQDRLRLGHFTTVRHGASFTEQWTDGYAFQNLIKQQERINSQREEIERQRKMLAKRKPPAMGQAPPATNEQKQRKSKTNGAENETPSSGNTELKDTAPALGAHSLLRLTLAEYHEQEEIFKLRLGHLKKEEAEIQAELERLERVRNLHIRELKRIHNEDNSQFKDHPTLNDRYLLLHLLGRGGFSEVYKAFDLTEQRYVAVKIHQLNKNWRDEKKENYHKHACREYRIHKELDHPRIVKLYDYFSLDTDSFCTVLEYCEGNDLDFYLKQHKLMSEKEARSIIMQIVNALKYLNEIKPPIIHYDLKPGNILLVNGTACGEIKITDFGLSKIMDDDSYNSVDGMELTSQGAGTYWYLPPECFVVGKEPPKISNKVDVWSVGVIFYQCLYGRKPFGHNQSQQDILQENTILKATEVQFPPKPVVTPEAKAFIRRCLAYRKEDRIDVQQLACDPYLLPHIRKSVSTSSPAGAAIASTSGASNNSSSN
pKd: −log10 of the molar value.
readout.label: pKd

> print(dat)
                                   molecule  readout.label   val
1  CC(C)n1c(=O)ccc2cnc(Nc3ccc(OCCN)cc3)nc21 [V16742]            pKd  4.32

* * *

Molecular target: ALK2 (ACVR1) (Homo sapiens, UniProt Q04771)
Sequence (Q04771 21-509): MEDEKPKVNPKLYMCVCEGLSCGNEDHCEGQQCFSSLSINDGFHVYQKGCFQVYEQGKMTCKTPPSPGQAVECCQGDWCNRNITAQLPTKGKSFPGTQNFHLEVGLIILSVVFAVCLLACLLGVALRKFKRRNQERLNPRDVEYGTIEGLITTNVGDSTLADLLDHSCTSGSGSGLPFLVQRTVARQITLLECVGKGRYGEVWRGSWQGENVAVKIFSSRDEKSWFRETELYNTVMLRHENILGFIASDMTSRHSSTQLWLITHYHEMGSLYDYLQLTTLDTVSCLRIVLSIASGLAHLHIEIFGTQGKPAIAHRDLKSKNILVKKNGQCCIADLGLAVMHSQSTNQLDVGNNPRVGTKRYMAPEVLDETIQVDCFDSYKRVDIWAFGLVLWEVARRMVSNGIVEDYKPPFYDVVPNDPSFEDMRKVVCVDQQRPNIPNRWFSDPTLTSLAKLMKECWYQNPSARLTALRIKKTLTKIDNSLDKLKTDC
Experiment: binding to AX14596 beads (HeLa lysate, SILAC MS)
Procedure: Differentially SILAC-encoded cell lysates were either incubated with the inhibitor beads displaying immobilized AX14596 or control resin devoid of ligand. In parallel, the supernatant from the first binding step was subjected to a second incubation with the AX14596 resin (FIG. 4). The resulting three elution fractions were combined, resolved by gel electrophoresis, proteolytically digested and the relative abundance of the retained proteins quantified. […]
pKi: −log10 of the molar value.
readout.label: pKi

> print(dat)
                             smiles.record                                    system   val
1  COc1cc2ncnc(Nc3ccc(F)c(Cl)c3)c2cc1OCCCN  ALK2 (ACVR1) (Homo sapiens, UniProt Q04771)  3.69

* * *

biological target: Testis expressed sequence 264 protein precursor (Homo sapiens); construct: endogenous in cells; host or cells: HeLa S3; assay: binding to immobilized V16742 (IVA1/IVA2, HeLa lysate, MS); conditions: Experiment 2, read-out: Kd
Sequence (Q9Y6I9 whole entry): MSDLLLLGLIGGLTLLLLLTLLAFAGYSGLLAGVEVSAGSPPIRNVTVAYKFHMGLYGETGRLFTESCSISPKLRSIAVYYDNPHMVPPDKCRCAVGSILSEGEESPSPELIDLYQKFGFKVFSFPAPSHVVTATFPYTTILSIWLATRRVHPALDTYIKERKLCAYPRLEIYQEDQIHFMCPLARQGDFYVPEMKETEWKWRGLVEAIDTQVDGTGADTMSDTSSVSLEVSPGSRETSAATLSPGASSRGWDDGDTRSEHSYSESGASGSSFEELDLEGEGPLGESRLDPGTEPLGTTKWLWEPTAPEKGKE
pKd: −log10 of the molar value.
readout.label: pKd

> print(dat)
                              smiles.record   val
1  CC(C)n1c(=O)ccc2cnc(Nc3ccc(OCCN)cc3)nc21  3.78

* * *

molecular target: MASTL (Homo sapiens); construct: endogenous in cells; test: binding to immobilized V16742 (IVA1/IVA2, HeLa lysate, MS); settings: single Kd value, obtained from only one experiment
readout.label: Kd (µM)

> print(dat)
                              smiles.record   val
1  CC(C)n1c(=O)ccc2cnc(Nc3ccc(OCCN)cc3)nc21  53.8

* * *

target: YES (Homo sapiens, UniProt P07947); assay: binding to immobilized V16742 (IVA1/IVA2, HeLa lysate, MS); settings: EXPERIMENT 1, read-out: Kd
readout.label: Kd (µM)

> print(dat)
                              smiles.record   val
1  CC(C)n1c(=O)ccc2cnc(Nc3ccc(OCCN)cc3)nc21  29.3

* * *

Target: EphB2 (Homo sapiens)
Sequence (P29323 19-1055): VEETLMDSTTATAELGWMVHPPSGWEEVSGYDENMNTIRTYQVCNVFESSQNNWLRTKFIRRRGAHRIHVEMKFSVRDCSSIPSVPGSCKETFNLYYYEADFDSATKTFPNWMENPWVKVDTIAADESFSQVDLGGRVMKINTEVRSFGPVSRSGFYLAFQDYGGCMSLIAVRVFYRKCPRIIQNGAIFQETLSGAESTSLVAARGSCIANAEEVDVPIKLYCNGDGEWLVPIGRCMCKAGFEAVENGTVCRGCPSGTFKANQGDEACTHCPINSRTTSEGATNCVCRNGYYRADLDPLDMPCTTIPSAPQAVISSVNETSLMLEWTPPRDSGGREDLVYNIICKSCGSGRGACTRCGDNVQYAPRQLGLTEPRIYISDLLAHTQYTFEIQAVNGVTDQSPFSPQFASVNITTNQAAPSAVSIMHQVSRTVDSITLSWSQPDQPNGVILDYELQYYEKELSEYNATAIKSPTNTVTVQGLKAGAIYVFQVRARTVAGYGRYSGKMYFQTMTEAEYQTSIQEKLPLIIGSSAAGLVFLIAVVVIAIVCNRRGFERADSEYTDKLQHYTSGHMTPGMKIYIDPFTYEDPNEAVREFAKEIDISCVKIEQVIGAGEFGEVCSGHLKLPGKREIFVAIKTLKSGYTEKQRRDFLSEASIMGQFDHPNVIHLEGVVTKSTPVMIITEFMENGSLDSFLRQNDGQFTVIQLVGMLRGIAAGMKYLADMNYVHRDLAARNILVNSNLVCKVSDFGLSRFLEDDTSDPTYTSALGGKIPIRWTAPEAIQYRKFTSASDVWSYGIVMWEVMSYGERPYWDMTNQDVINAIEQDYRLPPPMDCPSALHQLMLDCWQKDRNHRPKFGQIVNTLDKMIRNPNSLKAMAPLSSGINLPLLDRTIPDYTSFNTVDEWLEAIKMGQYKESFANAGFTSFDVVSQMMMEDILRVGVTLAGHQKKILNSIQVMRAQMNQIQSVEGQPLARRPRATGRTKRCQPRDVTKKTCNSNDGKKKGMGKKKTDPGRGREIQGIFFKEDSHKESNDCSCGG
Test: binding to immobilized V16742 (IVA1/IVA2, HeLa lysate, MS)
Conditions: EXPERIMENT 2, read-out: Kd
readout.label: Kd (µM)

> print(dat)
                              smiles.record                system  readout.label  unit.descriptor   val
1  CC(C)n1c(=O)ccc2cnc(Nc3ccc(OCCN)cc3)nc21  EphB2 (Homo sapiens)             Kd               µM  42.3
